test: Pharmacokinetic experiment in rats; type: in vivo, Sprague-Dawley rats; conditions: male, Sprague-Dawley, rat, plasma, PO 20 mg/kg single dose
Entries and their AUC(0-t) values follow.
Write down the numeric answer in ng·h/mL and omit the unit.

Sample answers from the record:
O=C(Nc1ccc(OC(F)(F)Cl)cc1)c1cnc(N2CC[C@@H](F)C2)c(-c2cnccn2)c1 [Example 7]; 23100
O=C(Nc1ccc(OC(F)(F)Cl)cc1)c1cnc(N2CC[C@@H](O)C2)c(-c2cnccn2)c1 [Example 1]; 38000

Which AUC(0-t) value belongs to O=C(Nc1ccc(OC(F)(F)Cl)cc1)c1cnc(N2CC[C@@H](O)C2)c(-c2ccn[nH]2)c1 [ABL-001, reference compound] ?
13700

----------
assay: Pharmacokinetic experiment in rats; assay type: in vivo, Sprague-Dawley rats; details: male, Sprague-Dawley, rat, plasma, IV 2 mg/kg single dose
AUC(0-t) overview

O=C(Nc1ccc(OC(F)(F)Cl)cc1)c1cnc(N2CC[C@@H](O)C2)c(-c2ccn[nH]2)c1 [ABL-001, reference compound]; 6900 ng·h/mL
O=C(Nc1ccc(OC(F)(F)Cl)cc1)c1cnc(N2CC[C@@H](O)C2)c(-c2cnccn2)c1 [Example 1]; 5700 ng·h/mL

Any idea what its AUC(0-t) is? The molecule is O=C(Nc1ccc(OC(F)(F)Cl)cc1)c1cnc(N2CC[C@@H](F)C2)c(-c2cnccn2)c1 [Example 7]
3740 ng·h/mL

----------
GI50 for assorted compounds
molecular target: Ba/F3 Bcr-Abl^T315I cells (Homo sapiens, UniProt P00519, T315I, cells depend on it); construct: Ba/F3 Bcr-Abl1^T315I IC50; other: Ba/F3 Bcr-Abl T315I cells, 3 days; fused on or other part: P11274 (Breakpoint cluster region protein); assay: Cytotoxicity experiment, Ba/F3 Bcr-Abl T315I cells (CellTiter-Glo); format: cell-based; settings: 3 days, read-out: Ba/F3 Bcr-Abl1^T315I IC50

O=C(Nc1ccc(OC(F)(F)Cl)cc1)c1cnc(N2CC[C@@H](O)C2)c(-c2ccnnc2)c1 [Example 3]; 500 to 1000 nM
O=C(Nc1ccc(OC(F)(F)Cl)cc1)c1cnc(N2CC[C@@H](O)C2)c(-c2nccnn2)c1 [Example 6]; > 1000 nM
O=C(Nc1ccc(OC(F)(F)Cl)cc1)c1cnc(N2CC[C@@H](O)C2)c(-c2cncnn2)c1 [Example 5]; 100 to 500 nM
O=C(Nc1ccc(OC(F)(F)Cl)cc1)c1cnc(N2CC[C@@H](F)C2)c(-c2cnccn2)c1 [Example 7]; ≤ 100 nM
Nc1ncc(-c2cc(C(=O)Nc3ccc(OC(F)(F)Cl)cc3)cnc2N2CC[C@@H](O)C2)nn1 [Example 4]; 100 to 500 nM

Could you tell me which GI50 is on file for O=C(Nc1ccc(OC(F)(F)Cl)cc1)c1cnc(N2CC[C@@H](O)C2)c(-c2cccnn2)c1 [Example 2] ?
100 to 500 nM

Which GI50 value is on record for O=C(Nc1ccc(OC(F)(F)Cl)cc1)c1cnc(N2CC[C@@H](O)C2)c(-c2cnccn2)c1 [Example 1] ?
≤ 100 nM

----------
Quick reference: MRT inf of the listed items.
assay: Pharmacokinetic experiment in rats; type: in vivo, Sprague-Dawley rats; conditions: male, Sprague-Dawley, rat, plasma, IV 2 mg/kg single dose, read-out: MRTINF—pred
Hi! Could you send only the number? It should be in h, unit omitted.

O=C(Nc1ccc(OC(F)(F)Cl)cc1)c1cnc(N2CC[C@@H](F)C2)c(-c2cnccn2)c1 [Example 7]; 1.14

Would you kindly look at the next entry?
May I ask what MRT inf has been recorded for O=C(Nc1ccc(OC(F)(F)Cl)cc1)c1cnc(N2CC[C@@H](O)C2)c(-c2cnccn2)c1 [Example 1] ?
1.37
